target-of-assay: T1, VP1 pentamer of BKV genotype II (recombinant) (BK virus genotype II, UniProt P14996 30-300)
T1 construct: also called GII; VP1 geno II pentamer; not shown: N-terminal His-tag of pESPRIT002; C-terminal biotin acceptor peptide (BAP) of pESPRIT002
test-method-notes: ELISA, coated VP1 pentamer
Threshold 0.1 µg/mL. EC50 below it: True. EC50 at it or above: False.

Please determine if antibody G6P7 (antibody, V domains shown) VH: QVQLQESGPGLVRPSETLSLTCTVSGGSISPYYWNWIRQPPGKGLEWIGYIYYSGNTKYNPSLKSRVTISVDTSKNQFSLKLSSVSAADTAVYYCARDSCSGTCYLGDNWFDPWGQGTLVTVSS VL: QSVLTQPPPVSGAPGQRVTISCTGSSSNIGANNDVHWYQHLPGTAPKLLIYGNNHRPSGVPDRFSGSKSGTSASLAITGLQAEDEADYYCQSYDSSLSTSKVFGGGTKLTVL is below 0.1 µg/mL in terms of EC50.
False

Note, next up: antibody D7P6 (antibody, V domains shown) VH: EVQLLESGGGLVQPGGSLRLSCAASGFPFSSYAMSWVRQAPGKGLEWVSGITGSASGTYYADSVKGRFTISRDNSKNTLYLRMNSLRAEDTAVYYCAKEGAYSYDYWYFDLWGRGTLVTVSS VL: EIVLTQSPGTLSLSPGERATLSCRASQSVSGSYLAWYQQKPGQTPRLLIYGASSRATGIPDRFSGSGSGTDFTLTINRLDPEDFGVYYCQQYGSLVTFGGGSKVEIK
False

Note, next up: antibody G8P6 (antibody, V domains shown) VH: QVQLQESGPGLVRPSQTLSLTCTVSGGSMTSGSYYWSWIRQPAEKGLEWIGRIYTSGRTDYNPSLKSRVAMSIDTSKNQFSLRLTSVTAADTAVYYCARWGDSSAYYYVGDPWGRGTTVTVSS VL: DIQMTQSPSSLSASIGDRVTITCRASQNINTYLYWYQQKPGKAPQLLIYAASNLQTGAPSRFSGSGSGTDFTLTISSLQPADFATYYCQQSFSLPHTFGQGTKLEIK
True

Note, next up: antibody G5P1 (antibody, V domains shown) VH: QVQLQESGPGLVKPSGTLSLTCTVSGGSIRNSYWSWIRQPPGKGLEWIGYIYYTGTTNSNPSLKSRVTISVHMSRNQISLKLNSVTPADTAVYYCAQGGGSGDLHYWGQGTLVTVSS VL: NFMLTQPASVSGSPGQSITISCTGTRSDVGGYNYVSWYQQHPGKAPKLMIYDISSRPSGVSNRFSASKSGNTASLTISGLQAEDEADYYCISFATGYTWVFGGGTRLTVL
True

Note, next up: antibody D3P7 (antibody, V domains shown) VH: QVQLVQSGSELKKPGASVRVSCKASAYTFTNSAINWVRQAPGQGLEWTGWINTNTGNPAYAQGFRGRFVFSLDTSVSEAYLQITNLKAEDTATYYCAVPYNFGGDHNSFHFFGMDVWGQGTTVTVSS VL: QSALTQPASVSGSPGQSITISCTGSSSDVGTYNFVSWYQQQPAKAPKVMIYEGTKRPSGISDRFSGSKSGNTASLTISGLQAEDEADYYCSSYAGGNAFVFGTGTRVSVL
False
